- System: APESV: bentgrass (Apera spica-venti)
- assay-notes: Post-emergent Test III, herbicidal activity in wheat and barley
- Type: in vivo
- measurement-setup: Apera spica-venti, post-emergence, 504 h; 140 g ai/ha; read-out: Visual Growth Reduction (%) 21 Days After Application APESV
measurement-kind: pest or weed control at 140 g/ha

> print(dat)
                                 cpd.smiles                         system.tested     result
1  Nc1c(F)c(-c2ccc(Br)c(F)c2F)nc(C(=O)O)c1Cl  APESV: bentgrass (Apera spica-venti)  85 to 94%
2  Nc1c(F)c(-c2ccc(OC(F)F)cc2)nc(C(=O)O)c1Cl  APESV: bentgrass (Apera spica-venti)  75 to 84%
3    Nc1cc(-c2ccc(Br)c(F)c2F)nc(C(=O)O)c1Cl  APESV: bentgrass (Apera spica-venti)  60 to 74%

Qu. Give the measured pest or weed control at 140 g/ha of COC(=O)c1nc(-c2ccc(F)cc2)c(F)c(N)c1Cl .
Ans. 60 to 74%
